- Tested on: MDA-MB-231
- experimental details: CCK-8 tumor cell proliferation, MDA-MB-231
- Type: cell-based, Human
- test conditions: Homo sapiens; Table 18, FAK inhibitor based; MDA-MB-231; read-out: IC50 inhibiting proliferation of tumor cells, MDA-MB-231
experimental readout: IC50

CN(c1cccc(CNc2nc(Nc3ccc(N4CCC(N5CCN(Cc6ccc7c(c6)CN(C6CCC(=O)NC6=O)C7=O)CC5)CC4)cc3)ncc2C(F)(F)F)c1)S(C)(=O)=O (stereo not drawn); < 50 nM
CNC(=O)c1ccccc1Nc1cc(Nc2ccc(N3CCN(Cc4cc5c(cc4F)C(=O)N(C4CCC(=O)NC4=O)C5)CC3)cc2OC)ncc1C(F)(F)F (stereo not drawn); < 50 nM
CNC(=O)c1ccccc1Nc1cc(Nc2ccc(N3CCN(Cc4cccc5c4CN(C4CCC(=O)NC4=O)C5=O)CC3)cc2OC)ncc1C(F)(F)F (stereo not drawn); 1000 to 5000 nM

Task: Could you share which IC50 value was measured for Cc1cnc(Nc2ccc(N3CCC(N4CCN(Cc5ccc6c(c5)CN(C5CCC(=O)NC5=O)C6=O)CC4)CC3)cc2)nc1Nc1cccc(S(=O)(=O)NC(C)(C)C)c1 (stereo not drawn) ?
Result: 1000 to 5000 nM

Task: Further, for CS(=O)(=O)c1cccc(CNc2nc(Nc3ccc(N4CCN(Cc5ccc6c(c5F)CN(C5CCC(=O)NC5=O)C6=O)CC4)cc3)ncc2C(F)(F)F)c1 (stereo not drawn) ?
Result: < 50 nM

Task: Further, for CN(c1cccc(CNc2nc(Nc3ccc(C4CCN(Cc5ccc6c(c5)CN(C5CCC(=O)NC5=O)C6=O)CC4)cc3)ncc2C(F)(F)F)c1)S(C)(=O)=O (stereo not drawn) ?
Result: 1000 to 5000 nM

Task: Further, for CN(c1nccnc1CNc1nc(Nc2ccc(N3CCC(N4CCN(Cc5ccc6c(c5)CN(C5CCC(=O)NC5=O)C6=O)CC4)CC3)cc2)ncc1C(F)(F)F)S(C)(=O)=O (stereo not drawn) ?
Result: < 50 nM
